Answer each item with its documented RP-LC retention time.
assay: gradient 5% acetonitrile 3 min, to 50% in 2 min, to 85% in 15 min, held 3 min, 100 µL/min; settings: column: Zorbax Extend-C18 2.1 x 50 mm; eluents: water / acetonitrile, 0.1% formic acid
Answers without a unit are incomplete; give the number and then its unit.

Give RP-LC retention time for each of the items listed below.
1. O=c1c(=O)n(-c2ccccc2)ccn1Cc1nc(-c2ccc(F)c(Cl)c2)no1
2. CCCN1C(=O)COc2ccc(-c3noc(CNS(=O)(=O)c4ccccc4)n3)cc21
3. CC(C)NC(=O)c1ccccc1OCC1CCN(C(=O)c2cc(F)cc(F)c2)CC1
4. Cc1cccc2c(=O)n(C)c(CCC(=O)NCc3ccc(Br)cc3)nc12

Response:
1: 894 s; 2: 888 s; 3: 927 s; 4: 887 s
